Target: TYK2 (Homo sapiens, UniProt P29597)
Construct: Degradation of TYK2 in cells was quantitatively measured using Meso Scale Discovery (MSD) technology; endogenous in cells; host or cells: OCI-LY10
Sequence (P29597 whole entry): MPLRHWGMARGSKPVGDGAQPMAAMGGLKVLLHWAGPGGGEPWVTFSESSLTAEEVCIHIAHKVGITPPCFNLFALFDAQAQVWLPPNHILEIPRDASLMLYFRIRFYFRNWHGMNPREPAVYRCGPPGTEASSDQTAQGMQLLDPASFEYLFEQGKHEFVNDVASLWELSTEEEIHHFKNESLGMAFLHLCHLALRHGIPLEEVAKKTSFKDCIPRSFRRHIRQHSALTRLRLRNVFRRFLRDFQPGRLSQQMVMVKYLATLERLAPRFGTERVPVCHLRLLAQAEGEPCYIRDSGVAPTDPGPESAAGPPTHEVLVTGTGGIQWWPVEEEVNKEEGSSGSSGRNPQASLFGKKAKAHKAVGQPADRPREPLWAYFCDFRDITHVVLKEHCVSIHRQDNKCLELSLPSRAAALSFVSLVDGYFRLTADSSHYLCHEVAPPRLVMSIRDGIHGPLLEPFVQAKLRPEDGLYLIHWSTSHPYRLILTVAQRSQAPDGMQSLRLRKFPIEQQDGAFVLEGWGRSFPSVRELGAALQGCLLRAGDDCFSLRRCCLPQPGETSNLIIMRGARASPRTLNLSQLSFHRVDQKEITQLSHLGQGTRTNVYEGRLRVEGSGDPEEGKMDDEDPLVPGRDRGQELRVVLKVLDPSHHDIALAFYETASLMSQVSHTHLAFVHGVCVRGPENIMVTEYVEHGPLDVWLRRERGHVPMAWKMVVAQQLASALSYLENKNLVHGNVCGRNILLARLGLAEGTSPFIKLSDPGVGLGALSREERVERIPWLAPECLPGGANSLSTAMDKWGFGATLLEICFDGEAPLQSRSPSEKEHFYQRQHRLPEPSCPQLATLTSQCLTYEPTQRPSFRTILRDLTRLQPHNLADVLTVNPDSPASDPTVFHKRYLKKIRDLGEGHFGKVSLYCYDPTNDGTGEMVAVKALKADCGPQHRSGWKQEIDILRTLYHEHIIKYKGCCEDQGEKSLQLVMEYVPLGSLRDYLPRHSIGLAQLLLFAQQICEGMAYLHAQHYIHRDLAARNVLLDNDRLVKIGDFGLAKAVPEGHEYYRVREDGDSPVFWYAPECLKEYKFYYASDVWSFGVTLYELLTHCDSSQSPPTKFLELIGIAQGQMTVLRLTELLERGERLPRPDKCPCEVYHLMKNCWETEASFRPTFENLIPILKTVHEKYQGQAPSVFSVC
Assay: TYK2 MSD degradation in OCI-LY10 cells
Assay type: cell-based
Conditions: TYK2 degradation in OCI-LY10 cells, 4 to 24 hours incubation
Procedure: Example 7. TYK2 MSD Degradation Degradation of TYK2 in cells was quantitatively measured using Meso Scale Discovery (MSD) technology. OCI-LY10 cells were seeded in 96-well plates with a density of 0.4 million cells per well in 100 μl fresh media. […] The assay plates were then incubated at room temperature for 1 hour, washed 3 times with 150 μl/well TB ST buffer, and 150 μl/well MSD reading buffer (MSD, R92TC-2) were added. The plates were then analyzed by an MSD reader. […]
assayReadout: TYK2 MSD OCI-LY10 Dmax %

compound="CNc1cc(N2CCc3c(-c4ccc(CN5CCC6(C5)CN(C(=O)c5ccc(Cl)c(N7CCC(=O)NC7=O)c5)C6)cn4)cccc32)nn2c(C(=O)NC3CC3F)cnc12 (centres unmarked)" readoutvalue="C (C (75 to 50%))"
compound="CNc1cc(N2CCc3c(-c4ccc(CN5CCC(N6CCN(c7ccc8c(c7F)n(C)c(=O)n8C7CCC(=O)NC7=O)CC6)C(F)(F)C5)cn4)cccc32)nn2c(C(=O)NC3CC3)cnc12 (centres unmarked)" readoutvalue="B (B (90 to >75%))"
compound="CNc1cc(N2CCc3c(CN4CCC(N5CCN(c6ccc7c(c6)n(C)c(=O)n7C6CCC(=O)NC6=O)CC5)C(F)(F)C4)cccc32)nn2c(C(=O)NC3CC3)cnc12 (centres unmarked)" readoutvalue="C (C (75 to 50%))"
compound=CNc1cc(-c2ccc(N3CCN(CC4CC5(CCN(C(=O)c6ccc(Cl)c(N7CCC(=O)NC7=O)c6)CC5)C4)CC3)cc2)nn2c(C(=O)N[C@@H]3C[C@@H]3F)cnc12 readoutvalue="D (D (<50%))"
compound=CNc1cc(N2CCc3c(-c4ccc(CN5CCC6(CC5)CCN(Cc5ccc(Cl)c(N7CCC(=O)NC7=O)c5)CC6)cn4)cccc32)nn2c(C(=O)N[C@@H]3C[C@@H]3F)cnc12 readoutvalue="D (D (<50%))"
compound="CNc1cc(N2CCc3c(CN4CCC(CN5CCC6(CCN(C(=O)c7ccc(Cl)c(N8CCC(=O)NC8=O)c7)CC6)C(F)(F)C5)C(F)(F)C4)cccc32)nn2c(C(=O)N[C@@H]3CC[C@H]3OC)cnc12 (some centres unmarked)" readoutvalue="A (A (>90%))"
compound=CNc1cc(N2CCc3c(-c4ccc(CN5CCC6(CC5)CCN(c5ccc(N7CCC(=O)NC7=O)c(Cl)c5)CC6)cn4)cccc32)nn2c(C(=O)N[C@@H]3C[C@@H]3F)cnc12 readoutvalue="D (D (<50%))"
compound="CNc1cc(N2CCc3c(CN4CCC(N5CC6(CCN(C(=O)c7cc(C)c(Cl)c(N8CCC(=O)NC8=O)c7)CC6)C5)C(F)(F)C4)cccc32)nn2c(C(=O)N[C@@H]3CC[C@H]3OC)cnc12 (some centres unmarked)" readoutvalue="A (A (>90%))"
compound="CNc1cc(N2CCc3c(CN4CCC(N5CCC6(CCN(C(=O)c7cc(F)c(C)c(N8CCC(=O)NC8=O)c7)CC6)CC5)C(F)(F)C4)cccc32)nn2c(C(=O)N[C@@H]3CC[C@H]3OC)cnc12 (some centres unmarked)" readoutvalue="A (A (>90%))"
compound=CNc1cc(N2CCc3c(CN4CCC5(CCN(C6CCN(C(=O)c7ccc(Cl)c(N8CCC(=O)NC8=O)c7)CC6)CC5)C(F)(F)C4)cccc32)nn2c(C(=O)N[C@@H]3C[C@@H]3F)cnc12 readoutvalue="B (B (90 to >75%))"
compound="CNc1cc(N2CCc3c(-c4cc(CN5CCC(c6ccc7c(c6)n(C)c(=O)n7C6CCC(=O)NC6=O)C(F)(F)C5)ccn4)cccc32)nn2c(C(=O)NC3CC3)cnc12 (centres unmarked)" readoutvalue="D (D (<50%))"
